Test: ATG_M_32_CIS: Attagene CIS-FACTORIAL HepG2 Assay for M32 Transcription Factor (Internal Marker) (AID 2282949);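 also: background control marker of the multiplexed CIS panel rather than a real target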
Test conditions: HepG2 Attagene cis-factorial M32 reporter, mRNA; actives raise or lower the signal
Experimental: ATG_CIS is a cell-based, multiplexed-readout assay that uses HepG2, a human liver cell line, with measurements taken at 24 hours after chemical dosing in a 24-well plate.ATG_M_32_CIS is one of 52 assay component(s) measured or calculated from the ATG_CIS assay. […] This assay endpoint, ATG_M_32_CIS, was analyzed with bidirectional fitting relative to DMSO as the negative control and baseline of activity. […]
The source made the active and inactive calls. The calls were made as follows: active = hit-call score of the fitted dose curve at least 0.9, where 1 is the maximum; inactive = score below 0.9.
Property measured: outcome

> print(dat)
                                   compound  data.value
1  FC(F)(F)C(F)(F)C(F)(F)CC1CO1 (stereo not drawn)    inactive
2                                C=C(C)CCCC    inactive
3                 OCC(F)(F)C(F)(F)C(F)(F)CO    inactive

----------
Read-out: Interferon-gamma inducible Protein 10 (IP10), CXCL10 (gene 3627)
Test: BSK_hDFCGF_IP10: BioMAP Diversity Plus: hDFCGF Assay for Interferon-gamma inducible Protein 10 (IP10) Biomarker Activity (AID 2283053)
Test conditions: primary human foreskin fibroblasts; actives raise or lower the signal
Calls of active or inactive are those of the source. The calls were made as follows: active = hit-call score of the fitted dose curve at least 0.9, where 1 is the maximum; inactive = score below 0.9.
Property measured: outcome

> print(dat)
                           molecular.string  property.measured  data.value
1  O=C(O)C(F)(F)OC(F)(F)C(F)(F)OC(F)(F)C(F)(F)OC(F)(F)F            outcome    inactive
2                   NC(O)(C(F)(F)F)C(F)(F)F            outcome    inactive
3  CN(C(=O)C(F)(F)C(F)(F)C(F)(F)F)[Si](C)(C)C            outcome    inactive

----------
Test: ATG_NRF2_ARE_CIS: Attagene CIS-FACTORIAL HepG2 Assay for human Nuclear Factor Erythroid 2 Related Factor 2 (NFR2) response to Antioxidant Response Elements (ARE) (AID 2282992)
Test conditions: HepG2 Attagene ARE/NRF2 reporter, transcription factor activity; actives raise or lower the signal
The source made the active and inactive calls. The calls were made as follows: active = hit-call score of the fitted dose curve at least 0.9, where 1 is the maximum; inactive = score below 0.9.
Returns: one label drawn from True = active, False = inactive

Would you please look over these solved cases?
Compound	Answer label
O=C(O)C(F)(F)C(F)(F)C(F)(F)C(=O)O	False
CCC(=O)OC(C)c1ccccc1 (configuration not stated)	False
CO[Si](C)(CCC(F)(F)C(F)(F)C(F)(F)C(F)(F)C(F)(F)C(F)(F)F)OC	False

Moving on to another compound below.
Inquiry: Any idea what this test logged for `CN(N=O)C(=O)N[C@@H]1[C@@H](O)[C@H](O)[C@@H](CO)O[C@@H]1O` ?
Reply text: False

----------
Test: ATG_PXRE_CIS: Attagene CIS-FACTORIAL HepG2 Assay for human Pregnane X Receptor Element (PXRE) (AID 2282957)
Test conditions: HepG2 Attagene CIS-FACTORIAL PXRE reporter, mRNA; actives raise or lower the signal
Protocol: ATG_CIS is a cell-based, multiplexed-readout assay that uses HepG2, a human liver cell line, with measurements taken at 24 hours after chemical dosing in a 24-well plate.ATG_PXRE_CIS is one of 52 assay component(s) measured or calculated from the ATG_CIS assay. […] This assay endpoint, ATG_PXRE_CIS, was analyzed with bidirectional fitting relative to DMSO as the negative control and baseline of activity. […]
Active and inactive are the calls of the source. Rule for the calls: active = hit-call score of the fitted dose curve at least 0.9, where 1 is the maximum; inactive = score below 0.9.
Returns: one label drawn from active, inactive

> print(dat)
             molecular.string  answer.label
1  Cc1ccc([N+](=O)[O-])c(C)c1      inactive

Inquiry: Any idea what this test logged for `CCOC(=O)CC(=O)C(F)(F)C(F)(F)F` ?
Reply text: active

Inquiry: What do we get for `CCOCOCC` ?
Reply text: inactive

Inquiry: What do we get for `NC(=O)C(F)(F)C(F)(F)C(F)(F)C(F)(F)C(F)(F)C(F)(F)C(F)(F)F` ?
Reply text: inactive

Inquiry: What do we get for `OCCCCl` ?
Reply text: inactive
